Hey, just so you know, these numbers are from PubChem BioAssay (NCATS).

Test system: 7G8
Assay: qHTS profiling for inhibitors of Plasmodium falciparum proliferation (AID 504749); note: nearly all actives have a fitted effect of over 60% in size
Conditions: P. falciparum in erythrocytes, SYBR Green DNA, 72 h; series mostly up to 28.7 µM
Results filed as inconclusive are left out. The source made the active and inactive calls. Calls come from the whole dose curve; as a rule, active = well fitted inhibition curve with a large enough effect; inconclusive = small, poorly fitted or top-dose-only effect; inactive = flat fitted curve, though single readings scatter.
Outcome codes: label 1 for active, label 0 for inactive

Molecule	Label
COc1ccc(C(=O)c2c(C)n(CCN3CCOCC3)c3ccccc23)cc1	label 1
CC[N+](CC)(CC)CC	label 0
C#CCOC(C(=O)OCCN(C)C)(c1ccccc1)c1ccccc1	label 1
CC(C)(C)NCC(O)c1cc(Cl)c(N)c(Cl)c1 (centres undefined)	label 1
Oc1cccc2cccnc12	label 0
CN1C(=S)CN=C(c2ccccc2)c2cc(Cl)ccc21	label 0
Nc1ccncc1	label 0
Oc1ccc(Cl)cc1Cc1ccccc1	label 1
NN=C(N)N	label 0
COc1ccccc1N1CCNCC1	label 0
NCC(O)c1ccc(O)cc1 (centres undefined)	label 0
C=C(C)[C@H]1Cc2c(ccc3c2O[C@@H]2COc4cc(OC)c(OC)cc4[C@@H]2C3=O)O1	label 1
Cc1ncc(CNC(=O)N(CCCl)N=O)c(N)n1	label 0
OCCOc1ccccc1	label 0

###

Assay: qHTS profiling for inhibitors of Plasmodium falciparum proliferation (AID 504749); note: nearly all actives have a fitted effect of over 60% in size;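 for activity, negative = inhibition: 0% = DMSO vehicle and full inhibition = artemisinin control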
Conditions: P. falciparum in erythrocytes, SYBR Green DNA, 72 h; at 28.7 µM (top of the series); parasite line A
Records with an inconclusive call do not appear.

Molecule	activity, negative = inhibition (%)
COc1ccc(C(CN(C)C)C2(O)CCCCC2)cc1 (stereo not drawn)	4.2
CC[N+]1(C)CCCC(OC(=O)C(O)(c2ccccc2)c2ccccc2)C1 (stereo not drawn)	-4.88
CN(C)CCc1ccc(O)cc1	-8.4
NP(N)(=O)NC(=O)c1ccc(F)cc1	-1.33
NCCc1cc(O)c(O)cc1O	7.16
NCC(CC(=O)O)c1ccc(Cl)cc1 (stereo not drawn)	6.71
Nc1ccncc1	15.2
c1ccc2c(c1)OCC(C1=NCCN1)O2 (stereo not drawn)	-17.7
O=C(NC(O)C(Cl)(Cl)Cl)NC(O)C(Cl)(Cl)Cl (stereo not drawn)	-1.71
CCC(COC(=O)c1cc(OC)c(OC)c(OC)c1)(c1ccccc1)N(C)C (stereo not drawn)	-11.1
Cc1ccc(-c2nc3ccc(C)cn3c2CC(=O)N(C)C)cc1	-4.35
FC(F)(F)c1cccc(C2=CCN(CCc3ccc4ccccc4c3)CC2)c1	-13.7
CC[C@@H](CO)NC(=O)[C@@H]1C=C2c3cccc4[nH]cc(c34)C[C@H]2N(C)C1	17.2
CC(C)=CC1C(C(=O)OCc2cccc(Oc3ccccc3)c2)C1(C)C (stereo not drawn)	-11.7
O=C(O)c1ccc2[nH]cc(CCCCN3CC=C(c4ccccc4)CC3)c2c1	5.66
CCCC1CCCCN1 (stereo not drawn)	5.52
CN1CCN(C(=O)O[C@H]2c3nccnc3C(=O)N2c2ccc(Cl)cn2)CC1	-9.31
C=C1CC[C@@]2(O)[C@H]3Cc4ccc(O)c5c4[C@@]2(CCN3CC2CC2)[C@H]1O5	9.27
COc1ccccc1N1CCNCC1	-0.986
CCN(CC)CCOC(=O)C(O)(c1ccccc1)c1ccccc1	9.85
CC(=O)[C@H]1CC[C@H]2[C@@H]3CC[C@H]4C[C@H](O)CC[C@]4(C)[C@H]3C(=O)C[C@]12C	10.2
Oc1ccc(Cl)cc1Cc1ccccc1	-17.6
O=C1NCN(c2ccccc2)C12CCN(CC1COc3ccccc3O1)CC2 (stereo not drawn)	-17.5
